assay: Kinetic solubility in PBS pH 7.4, HPLC-UV (Example 21, Table 27); type: physicochemical; details: phosphate buffered saline, aqueous buffer, kinetic from dmso stock, 0.5 M PBS, shaken minimum 24 h at approximately 25° C., HPLC-UV 270 nm
reportedEndpoint: solubility kinetic

{"compound": "CCCCCOc1cc(N2CC(CO)CN(Cc3ccc(CC(=O)N4CCOCC4)cc3OC)C2=O)ccc1OC (centres unmarked)", "reportedEndpoint": "solubility kinetic", "result": "> 500 µM"}
{"compound": "COc1cc(CNC(C)=O)ccc1CN1CCCN(c2ccc(OC)c(OCCCC3CCC3)c2)C1=O", "reportedEndpoint": "solubility kinetic", "result": "< 10 µM"}
{"compound": "CCCCCOc1cc(N2CCCN(Cc3ccnc4c3ccn4CC(=O)N(C)C3CCN(CC)C3)C2=O)ccc1OC (centres unmarked)", "reportedEndpoint": "solubility kinetic", "result": "> 500 µM"}
{"compound": "CCCCCOc1cc(N2CCCN(Cc3cccc4c3ccn4CC(=O)NC3CNC(=O)C3)C2=O)ccc1OC (centres unmarked)", "reportedEndpoint": "solubility kinetic", "result": "< 10 µM"}
{"compound": "CCCCCOc1cc(N2CCCN(Cc3ccnc4c3c(Cl)cn4CC(=O)N3CCOCC3)C2=O)ccc1OC", "reportedEndpoint": "solubility kinetic", "result": "< 10 µM"}
{"compound": "CCCCCOc1cc(N2CCCN(Cc3ccnc4c3c(Cl)cn4CCN3CCCC3)C2=O)ccc1OC", "reportedEndpoint": "solubility kinetic", "result": "249 µM"}
{"compound": "CCCCCOc1cc(N2CC(C(N)=O)CN(Cc3ccc(CC(=O)N(C)C)cc3OC)C2=O)ccc1OC (centres unmarked)", "reportedEndpoint": "solubility kinetic", "result": "465 µM"}
{"compound": "CCC(F)(F)CCOc1cc(N2CCCN(Cc3ccc(CC(=O)N4CCOC(CN(C)C)C4)cc3OC)C2=O)ccc1OC (centres unmarked)", "reportedEndpoint": "solubility kinetic", "result": "486 µM"}
